TARGET_DESC: dephosphorylated FGFR1 (Homo sapiens (Human))
Sequence (P11362 458-765): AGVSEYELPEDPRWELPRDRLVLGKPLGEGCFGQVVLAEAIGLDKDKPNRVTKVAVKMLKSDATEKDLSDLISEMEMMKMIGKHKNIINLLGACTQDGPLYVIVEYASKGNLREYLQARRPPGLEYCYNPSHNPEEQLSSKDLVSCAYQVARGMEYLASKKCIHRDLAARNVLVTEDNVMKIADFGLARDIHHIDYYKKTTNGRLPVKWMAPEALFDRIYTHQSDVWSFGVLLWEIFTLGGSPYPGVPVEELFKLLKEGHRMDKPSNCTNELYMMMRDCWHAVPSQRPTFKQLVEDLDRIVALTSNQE
pIC50: −log10 of the molar value.
PARAMETER: pIC50

The examples below pair each entry with its known result.
{"columns": ["MOLECULE", "OBSERVED_VALUE"],
 "data": [
  ["COc1cc(Nc2ccc3ncc(-c4cnn(C5CCN(C(=O)C6(F)CN(C(=O)/C=C/CN(C)C)C6)CC5)c4)nc3c2)cc(OC)c1 [Example 10]", 7.55],
  ["C=CC(=O)N1CC(C(=O)N2CCN(c3ccc(-c4cnc5ccc(Nc6cc(OC)cc(OC)c6)cc5n4)cn3)CC2)C1 [Example 5]", 6.21]
]}

A: C=CC(=O)N1CC(O)(C(=O)N2CCC(n3cc(-c4cnc5ccc(N(C)c6cc(OC)cc(OC)c6)cc5n4)cn3)CC2)C1 [Example 27]
B: COc1cc(Nc2ccc3ncc(-c4cnn(C5CCN(C(=O)C6(C#N)CN(C(=O)/C=C/CN(C)C)C6)CC5)c4)nc3c2)cc(OC)c1 [Example 11]
Looking at A and B , which one comes out lower in pIC50 terms? Please identify the chosen entry by its label.
B

a: COc1cc(Nc2ccc3ncc(-c4c(C)nn(C5CCN(C(=O)C6(F)CN(C(=O)/C=C/CN(C)C)C6)CC5)c4C)nc3c2)cc(OC)c1 [Example 23]
b: C=CC(=O)N1CC(CN2CCC(n3cc(-c4cnc5ccc(Nc6cc(OC)cc(OC)c6)cc5n4)cn3)CC2)C1 [Example 30]
Looking at a and b , which one comes out lower in pIC50 terms? Please identify the chosen entry by its label.
a
(a: 6.07, b: 7.47)

* * *

TARGET_DESC: recombinant human FGFR2 cytoplasmic domain (Homo sapiens (Human), UniProt P21802)
Sequence (P21802 402-821): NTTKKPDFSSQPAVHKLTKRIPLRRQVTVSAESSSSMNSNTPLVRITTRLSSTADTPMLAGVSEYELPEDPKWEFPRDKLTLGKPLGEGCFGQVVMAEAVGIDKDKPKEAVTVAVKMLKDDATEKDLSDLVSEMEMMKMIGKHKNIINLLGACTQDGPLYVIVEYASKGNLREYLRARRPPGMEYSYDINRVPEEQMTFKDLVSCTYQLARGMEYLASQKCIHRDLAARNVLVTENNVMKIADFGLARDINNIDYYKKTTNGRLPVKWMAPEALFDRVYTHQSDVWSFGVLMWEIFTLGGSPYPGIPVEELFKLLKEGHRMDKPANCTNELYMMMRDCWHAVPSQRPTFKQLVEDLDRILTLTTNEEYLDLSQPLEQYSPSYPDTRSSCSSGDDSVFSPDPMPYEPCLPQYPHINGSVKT
PROTOCOL_TEXT: FGFR Enzyme Activity Assay (LanthaScreen TR-FRET), FGFR2
STATED_CONDITIONS: 15 μM ATP, 20 minute incubation; read-out: FGFR2 Enz FRET IC50
PARAMETER: IC50 (nM)

{"columns": ["SMILES_STRING", "PARAMETER", "OBSERVED_VALUE"],
 "data": [
  ["COc1cc(Nc2ccc3ncc(-c4cnn(C5CCN(C(=O)C6CN(C(=O)/C=C/CN(C)C)C6)CC5)c4)nc3c2)cc(OC)c1", "IC50", 10],
  ["C=CC(=O)N1CC(F)(C(=O)N2CCN(c3cc(C)c(-c4cnc5ccc(Nc6cc(OC)cc(OC)c6)cc5n4)cn3)CC2)C1", "IC50", 5000],
  ["C=CC(=O)N1CC(CN2CCC(n3cc(-c4cnc5ccc(Nc6cc(OC)cc(OC)c6)cc5n4)cn3)CC2)C1", "IC50", 159],
  ["C#CCN(c1cc(OC)cc(OC)c1)c1ccc2ncc(-c3cnn(C4CCN(C(=O)C5(F)CN(C(=O)/C=C/CN(C)C)C5)CC4)c3)nc2c1", "IC50", 5],
  ["COc1cc(Nc2ccc3ncc(-c4cnn([C@@H]5CCN(C(=O)C6(F)CN(C(=O)/C=C/CN(C)C)C6)C5)c4)nc3c2)cc(OC)c1", "IC50", 166],
  ["COc1cc(Nc2ccc3ncc(-c4cnc(N5CCN(C(=O)C6(F)CN(C(=O)/C=C/CN(C)C)C6)CC5)cc4C)nc3c2)cc(OC)c1", "IC50", 666],
  ["C=CC(=O)N1CC(F)(C(=O)N2CCN(c3ccc(-c4cnc5ccc(Nc6cc(OC)cc(OC)c6)cc5n4)cn3)CC2)C1", "IC50", 744],
  ["C=CC(=O)N1CC(CN2CCC(n3cc(-c4cnc5ccc(Nc6cc(OC)cc(OC)c6)cc5n4)cn3)CC2)(OC)C1", "IC50", 333],
  ["C=CC(=O)N1CC(C#N)(C(=O)N2CCC(n3cc(-c4cnc5ccc(Nc6cc(OC)cc(OC)c6)cc5n4)cn3)CC2)C1", "IC50", 33],
  ["COc1cc(Nc2ccc3ncc(-c4ccc(N5CCN(C(=O)C6(F)CN(C(=O)/C=C/CN(C)C)C6)CC5)nc4)nc3c2)cc(OC)c1", "IC50", 227]
]}

1: COc1cc(Nc2ccc3ncc(-c4c(C)nn(C5CCN(C(=O)C6(F)CN(C(=O)/C=C/CN(C)C)C6)CC5)c4C)nc3c2)cc(OC)c1
2: C=CC(=O)N1CC(C(=O)N2CCC(n3cc(-c4cnc5ccc(Nc6cc(OC)cc(OC)c6)cc5n4)cn3)CC2)C1
Looking at 1 and 2 , which one comes out lower in IC50 terms? Please identify the chosen entry by its label.
2
(2: 11 nM, 1: 3460 nM)

* * *

Listed here: compounds with reported IC50 for FGFR3 (Homo sapiens (Human)).
PARAMETER: IC50 (nM)

The examples below pair each entry with its known result.
{"columns": ["SMILES_STRING", "TARGET_DESC", "PARAMETER", "UNIT_ABBREV", "OBSERVED_VALUE"],
 "data": [
  ["C=CC(=O)N1CC(O)(C(=O)N2CCC(n3cc(-c4cnc5ccc(Nc6cc(OC)cc(OC)c6)cc5n4)cn3)CC2)C1", "FGFR3 (Homo sapiens (Human))", "IC50", "nM", 14],
  ["C=CC(=O)N1CC(CN2CCC(n3cc(-c4cnc5ccc(Nc6cc(OC)cc(OC)c6)cc5n4)cn3)CC2)(OC)C1", "FGFR3 (Homo sapiens (Human))", "IC50", "nM", 40],
  ["COc1cc(Nc2ccc3ncc(-c4ccc(N5CCN(C(=O)C6(F)CN(C(=O)/C=C/CN(C)C)C6)CC5)nc4)nc3c2)cc(OC)c1", "FGFR3 (Homo sapiens (Human))", "IC50", "nM", 277],
  ["COc1cc(Nc2ccc3ncc(-c4cnn(C5CCN(C(=O)C6(F)CN(C(=O)/C=C/CN(C)C)C6)CC5)c4)nc3c2)cc(OC)c1", "FGFR3 (Homo sapiens (Human))", "IC50", "nM", 16],
  ["COc1cc(Nc2ccc3ncc(-c4cn(C5CCN(C(=O)C6(F)CN(C(=O)/C=C/CN(C)C)C6)CC5)nc4C)nc3c2)cc(OC)c1", "FGFR3 (Homo sapiens (Human))", "IC50", "nM", 79],
  ["COc1cc(Nc2ccc3ncc(-c4c(C)nn(C5CCN(C(=O)C6(F)CN(C(=O)/C=C/CN(C)C)C6)CC5)c4C)nc3c2)cc(OC)c1", "FGFR3 (Homo sapiens (Human))", "IC50", "nM", 972],
  ["COc1cc(Nc2ccc3ncc(-c4cnn(C5CCN(C(=O)C6(C#N)CN(C(=O)/C=C/CN(C)C)C6)CC5)c4)nc3c2)cc(OC)c1", "FGFR3 (Homo sapiens (Human))", "IC50", "nM", 7],
  ["C=CC(=O)N1CC(C(=O)N2CCC(n3ncc(-c4cnc5ccc(Nc6cc(OC)cc(OC)c6)cc5n4)c3C)CC2)C1", "FGFR3 (Homo sapiens (Human))", "IC50", "nM", 373]
]}

1: COc1cc(Nc2ccc3ncc(-c4cnn([C@@H]5CCN(C(=O)C6(F)CN(C(=O)/C=C/CN(C)C)C6)C5)c4)nc3c2)cc(OC)c1
2: C#CCN(c1cc(OC)cc(OC)c1)c1ccc2ncc(-c3cnn(C4CCN(C(=O)C5(F)CN(C(=O)/C=C/CN(C)C)C5)CC4)c3)nc2c1
Could you point out whether the larger IC50 belongs to 1 or to 2 ? Please identify the chosen entry by its label.
1
(1: 50 nM, 2: 6 nM)

A: C=CC(=O)N1CC(F)(C(=O)N2CCC(n3cc(-c4cnc5ccc(Nc6cc(OC)cc(OC)c6)cc5n4)cn3)CC2)C1
B: COc1cc(Nc2ccc3ncc(-c4cnc(N5CCN(C(=O)C6(F)CN(C(=O)/C=C/CN(C)C)C6)CC5)cc4C)nc3c2)cc(OC)c1
Could you point out whether the larger IC50 belongs to A or to B ? Please identify the chosen entry by its label.
B

* * *

TARGET_DESC: recombinant human FGFR1 catalytic domain (Homo sapiens (Human), UniProt P11362)
Sequence (P11362 other isoform, or with tags, fused parts or gaps): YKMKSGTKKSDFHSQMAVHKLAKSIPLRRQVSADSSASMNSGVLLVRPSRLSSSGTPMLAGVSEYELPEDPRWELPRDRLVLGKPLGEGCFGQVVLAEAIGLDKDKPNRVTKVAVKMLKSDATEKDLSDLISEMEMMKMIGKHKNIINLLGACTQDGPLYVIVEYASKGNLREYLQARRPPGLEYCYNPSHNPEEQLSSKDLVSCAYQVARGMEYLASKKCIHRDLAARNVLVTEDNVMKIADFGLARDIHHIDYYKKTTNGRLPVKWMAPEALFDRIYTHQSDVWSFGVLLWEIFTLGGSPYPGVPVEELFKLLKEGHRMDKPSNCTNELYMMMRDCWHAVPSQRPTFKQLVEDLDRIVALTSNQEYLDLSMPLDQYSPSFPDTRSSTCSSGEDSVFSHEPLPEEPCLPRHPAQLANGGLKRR
PROTOCOL_TEXT: FGFR Enzyme Activity Assay (LanthaScreen TR-FRET), FGFR1
STATED_CONDITIONS: 15 μM ATP, 20 minutes incubation; read-out: FGFR1 Enz FRET IC50
pIC50: −log10 of the molar value.
PARAMETER: pIC50

1: COc1cc(Nc2ccc3ncc(-c4cnn(C5CCN(C(=O)C6CN(C(=O)/C=C/CN(C)C)C6)CC5)c4)nc3c2)cc(OC)c1
2: C=CC(=O)N1CC(C(=O)N2CC[C@@H](n3cc(-c4cnc5ccc(Nc6cc(OC)cc(OC)c6)cc5n4)cn3)C2)C1
3: C=CC(=O)N1CC(C(=O)N2CCC(n3ncc(-c4cnc5ccc(Nc6cc(OC)cc(OC)c6)cc5n4)c3C)CC2)C1
4: C=CC(=O)N1CC(C(=O)N2CC(n3cc(-c4cnc5ccc(Nc6cc(OC)cc(OC)c6)cc5n4)cn3)C2)C1
Task for the reader: place the compounds above in descending order according to recorded pIC50. In your reply, arrange the labels in the requested order.
1, 4, 2, 3

A: C=CC(=O)N1CC[C@@H](C(=O)N2CCC(n3cc(-c4cnc5ccc(Nc6cc(OC)cc(OC)c6)cc5n4)cn3)CC2)C1
B: C=CC(=O)N1CC(F)(C(=O)N2CCN(c3cc(C)c(-c4cnc5ccc(Nc6cc(OC)cc(OC)c6)cc5n4)cn3)CC2)C1
C: C=CC(=O)N1CC(C#N)(C(=O)N2CCC(n3cc(-c4cnc5ccc(Nc6cc(OC)cc(OC)c6)cc5n4)cn3)CC2)C1
D: C=CC(=O)N1CC(O)(C(=O)N2CCC(n3cc(-c4cnc5ccc(N(C)c6cc(OC)cc(OC)c6)cc5n4)cn3)CC2)C1
// smallest pIC50 at index 0, largest at the end In your reply, arrange the labels in the requested order.
B, C, A, D

a: COc1cc(Nc2ccc3ncc(-c4cnn(C5CCN(C(=O)C6(F)CN(C(=O)/C=C/CN(C)C)C6)CC5)c4)nc3c2)cc(OC)c1
b: COc1cc(Nc2ccc3ncc(-c4cnn([C@@H]5CCN(C(=O)C6CN(C(=O)/C=C/CN(C)C)C6)C5)c4)nc3c2)cc(OC)c1
Could you point out whether the larger pIC50 belongs to a or to b ? Please identify the chosen entry by its label.
a

a: C=CC(=O)N1CC(OC)(C(=O)N2CCC(n3cc(-c4cnc5ccc(Nc6cc(OC)cc(OC)c6)cc5n4)cn3)CC2)C1
b: C#CCN(c1cc(OC)cc(OC)c1)c1ccc2ncc(-c3cnn(C4CCN(C(=O)C5(F)CN(C(=O)/C=C/CN(C)C)C5)CC4)c3)nc2c1
Looking at a and b , which one comes out lower in pIC50 terms? Please identify the chosen entry by its label.
a
